# STUDY TARGET: Prostate-specific antigen (Homo sapiens)
ENDPOINT: IC50

CPD SMILES: NCc1ccc(COC(=O)[C@@H]2[C@H](Cc3ccccc3)C(=O)N2C(=O)Cc2cccc(C(=O)O)c2)cc1
IC50: 1340 nM

Proceeding to the next compound to report its IC50.
Consider the compound shown here: O=C(O)c1ccc(COC(=O)[C@@H]2[C@H](Cc3ccccc3)C(=O)N2C(=O)Cc2cccc(C(=O)O)c2)cc1 What is its recorded IC50?
> 30000 nM
